Data origin: patent US10577362B2

- Test system: HCT-116 (colorectal carcinoma) cell line
- Experimental protocol: CellTiter-Glo luminescent cell viability assay, HCT-116
- Assay type: cell-based, human
- Assay context: Homo sapiens; HCT-116, compound at 10 μM, 72 h
Readout label: viability at 10 µM (%)
Use % as the unit, but write only the number.

I would be grateful if you could share the reported viability at 10 µM for Cc1ccnc(Nc2ccc(Nc3nc4ccccc4c(N4CCC(NC(C)(C)C)CC4)c3C)cc2)n1 [Compound 532Me] .
0.3

I would be grateful if you could share the reported viability at 10 µM for CN1CCC(NC2CCN(c3c(C#N)c(NCc4ccc(Cl)cc4)nc4ccccc34)CC2)CC1 [Compound 3182CN] .
0.3

I would be grateful if you could share the reported viability at 10 µM for N#Cc1c(NCc2ccc(Cl)cc2)nc2ccccc2c1N1CCCC(NC2CCCC2)C1 (stereo not shown) [Compound 162CN] .
0.1

I would be grateful if you could share the reported viability at 10 µM for Cc1ccc2nc(NCc3ccc(Cl)cc3)c(C#N)c(N3CCC(NC(C)(C)C)CC3)c2c1 [Compound 418CN] .
0.2

* * *

- Tested on: HepG2 (hepatocellular carcinoma) cell line
- Experimental protocol: CellTiter-Glo luminescent cell viability assay, HepG2
- Format: cell-based, human
- Assay context: Homo sapiens, HepG2; HepG, compound at 4 μM, 72 h
Hi! Could you tag entries with viability at 4 µM below 90% as 1, and those at or above as -1? Much appreciated.

Consider CC(C)(C)NC1CCN(c2c(C#N)c(Nc3ccc(F)c(F)c3)nc3ccccc23)CC1 [Compound 3264CN] . Does its viability at 4 µM lie strictly below 90%?
1

Consider Cc1nccnc1OC1CCCN(c2c(C#N)c(NCc3ccc(Cl)cc3)nc3ccccc23)C1 (centres unmarked) [Compound 3328CN] . Does its viability at 4 µM lie strictly below 90%?
-1

Consider CC(C)(C)NC1CCN(c2c(C#N)c(Nc3ccccc3C(F)(F)F)nc3ccccc23)CC1 [Compound 3254CN] . Does its viability at 4 µM lie strictly below 90%?
1

Consider N#Cc1c(NCc2ccc(Cl)cc2)nc2ccccc2c1N1CCC(NC2CCCC2)C1 (centres unmarked) [Compound 134CN] . Does its viability at 4 µM lie strictly below 90%?
-1

Consider CC(C)(C)NC1CCN(c2c(C#N)c(Nc3ccccn3)nc3ccccc23)CC1 [Compound 3278CN] . Does its viability at 4 µM lie strictly below 90%?
1

Consider CC(C)(C)NC1CCN(c2c(C#N)c(NCc3ccc(F)cc3)nc3ccccc23)CC1 [Compound 240CN] . Does its viability at 4 µM lie strictly below 90%?
1

Consider CNC1CCN(c2c(C#N)c(NCc3ccc(Cl)cc3)nc3ccccc23)C1 (centres unmarked) [Compound 3192CN] . Does its viability at 4 µM lie strictly below 90%?
1

* * *

- Tested on: A375 (malignant melanoma) cell line
- Experimental protocol: CellTiter-Glo luminescent cell viability assay, A375
- Type: cell-based, human
- Assay context: Homo sapiens, A-375; A375 cell line; 72 h incubation; CellTiter-Glo; read-out: EC50, growth inhibition of A375
Counter-ions that a name gives are not always drawn.
Record form. Attribute: EC50. Fill in for each entry.

Reported EC50 for A375 (malignant melanoma) cell line, given CN(C)C1CCN(c2c(C#N)c(NCc3ccc(Cl)cc3)nc3ccccc23)CC1 [Compound 3184CN] ?
0.5 to 5 µM

Reported EC50 for A375 (malignant melanoma) cell line, given Clc1ccc(CNc2cc(N3CCC(Oc4cnccn4)CC3)c3ccccc3n2)cc1 [Compound 2958, hydrochloride] ?
5 to 10 µM

Reported EC50 for A375 (malignant melanoma) cell line, given CN1CCN(C2CCCN(c3c(C#N)c(NCc4ccc(Cl)cc4)nc4ccccc34)C2)CC1 (stereo not shown) [Compound 3168CN] ?
0.5 to 5 µM

Reported EC50 for A375 (malignant melanoma) cell line, given CC(C)(C)NC1CCN(c2c(C#N)c(NCc3ccc4c(c3)OCO4)nc3ccccc23)CC1 [Compound 3300CN] ?
0.5 to 5 µM
